assay: Plasma protein binding by equilibrium dialysis (human); format: in vitro ADME; conditions: pH 7.4; human plasma, equilibrium dialysis, n = 3; read-out: Mean device recovery %
VALUE_TYPE: recovery at 6 h, 0.2 μM (%)
Numbers only here, please. The scale is %.

Exercise: Looking for the measured recovery at 6 h, 0.2 μM of COc1ccc(CNc2nc(N3CCC[C@H]3CO)ncc2C(=O)NCc2ccccn2)cc1Cl , can you help?
Solution: 101

###

Test: In vivo pharmacokinetic study in rats
Design: species or system male Sprague–Dawley rats
Conditions: male, Sprague-Dawley, plasma; rat, PO 2 mg/kg
Method: For the iv experiment, male SD rats (n = 3) were given a single dose of NHPPC (1 mg/kg) over 1 min by dorsal venous arch of foot. […] Plasma was obtained after centrifugation at 8000 rpm for 6 min (4°C) within 10 min of blood-drawing and stored at –70°C until they were analyzed. Data analysis including analyte/IS was acquired using Analyst version 1.6.1 software (AB SCIEX). […] The area under the concentration time curve (AUC0–t and AUC0–∞) was calculated by linear trapezoidal rule. […]
VALUE_TYPE: AUC(0-t) (ng·h/mL)
Numbers only here, please. The scale is ng·h/mL.

Exercise: Looking for the measured AUC(0-t) of COc1ccc(CNc2nc(N3CCC[C@H]3CO)ncc2C(=O)NCc2ccccn2)cc1Cl , can you help?
Solution: 583
